- Assay Summary: NCI Yeast Anticancer Drug Screen. Data for the sgs1 mgt1 strain (AID 161);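 further: 0% = growth of cultures given vehicle only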
- Experimental Context: S. cerevisiae sgs1 mgt1 strain; at 50.0 µM unless noted
Compounds without any hit were thinned out: in the full panel of roughly 79,000, 15% have a hit. Active and inactive are the calls of the source. No stated cut-off is given here; in the data, active means growth inhibition above about 70%; inactive means the rest.
Your reply should match one of these outcome classes. active, inactive

{"Compound": "NC1CC(c2ccccc2)NC(c2ccccc2)C1 (centres undefined)", "Class Label": "inactive"}
{"Compound": "CC1CCCN1CCOC(=O)C(c1ccccc1)C1CCCC1 (centres undefined)", "Class Label": "inactive"}
{"Compound": "O=C(NC(CO)Cc1ccccc1)OCc1ccccc1 (centres undefined)", "Class Label": "inactive"}
{"Compound": "Brc1ccccc1C#Cc1ccccc1Br", "Class Label": "inactive"}

// outcome(item) with item = Cc1ccc(C2=CC=C(c3ccccc3)C2)cc1 inactive

Next record, please: C=C1c2nc3ccccc3n2C=C(c2ccccc2)N1c1ccc(OC)cc1 inactive

Do the same for CC(=O)CCn1[nH]c(=O)c2ccccc2c1=O please inactive

###

- Assay Summary: NCI Yeast Anticancer Drug Screen. Data for the bub3 strain (AID 167)
- Experimental Context: S. cerevisiae bub3 mutant strain, active compounds read high; at 50.0 µM unless noted
This is part of a sample that, as a whole, favours compounds with a hit. Of some 79,000 tested, about 15% had one in any assay.
Quick list: growth inhibition per entry.
Give the number; % is assumed, so skip it.

Some solved entries appear below for comparison.
{"Compound": "Cc1cc(Cl)ccc1NC(=O)CC/C(CC(=O)C(C)C)=N\\NC(=O)C[n+]1ccccc1", "Unit Symbol": "%", "growth inhibition": -30.6}
{"Compound": "N#CSc1ccc(NN)cc1", "Unit Symbol": "%", "growth inhibition": 33.7}
{"Compound": "N=C(N)SCc1ccc(Oc2ccc(CSC(=N)N)cc2)cc1", "Unit Symbol": "%", "growth inhibition": -2.4}
{"Compound": "COc1cccc(N)c1N", "Unit Symbol": "%", "growth inhibition": -16.9}
{"Compound": "CCCCC(C(=O)CCC(=O)Nc1ccc(Cl)c(Cl)c1)C(=O)C(C)C (stereo not drawn)", "Unit Symbol": "%", "growth inhibition": 8.4}
{"Compound": "CCN1CCC(O)C1 (stereo not drawn)", "Unit Symbol": "%", "growth inhibition": 26}
{"Compound": "O=C(O)/C(=C/c1cccc(Cl)c1)c1ccc(Cl)cc1", "Unit Symbol": "%", "growth inhibition": 2.4}
{"Compound": "Oc1ccccc1C1CCCC1", "Unit Symbol": "%", "growth inhibition": 0.25}
{"Compound": "Nc1[nH]c(=O)[nH]c(=O)c1[N+](=O)[O-]", "Unit Symbol": "%", "growth inhibition": -9.35}
{"Compound": "C=CCCn1nc(-c2ccccc2)oc1=O", "Unit Symbol": "%", "growth inhibition": -26.9}

So what does the record say about growth inhibition for Fc1ccccc1-c1nn2c(C34CC5CC(CC(C5)C3)C4)nnc2s1 ? -11.8

What do you have for CC(Br)C(=O)NC(CC(N)=O)C(=O)O (stereo not drawn) ? -14.7

// query: CN1C(=O)C(c2c[nH]c3ccccc23)N(C)C(=O)C1c1c[nH]c2ccccc12 (stereo not drawn) -27.9

###

// reported growth inhibition per item
- Assay Summary: NCI Yeast Anticancer Drug Screen. Data for the rad50 strain (AID 155);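 further: 0% = growth of vehicle-only cultures of the same strain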
- Experimental Context: S. cerevisiae rad50 strain growth inhibition, active compounds read high; at 50.0 µM unless noted
This is part of a sample that, as a whole, favours compounds with a hit. Of some 79,000 tested, about 15% had one in any assay.
Hi! Could you send only the number? It should be in %, unit omitted.

Some molecules with recorded growth inhibition:
{"Molecule": "O=CNc1cccnc1C1OCCO1", "growth inhibition (%)": 4.85}
{"Molecule": "CCN(CC)C(=S)SCC(=O)Nc1nc2c(s1)CCCC2", "growth inhibition (%)": -9.25}
{"Molecule": "CC1=NN(C(=O)CC(=O)Nc2ccc(C)cc2)C(=O)C1N=Nc1ccc(S(=O)(=O)c2ccc(N=NC3C(=O)N(C(=O)CC(=O)Nc4ccc(C)cc4)N=C3C)cc2)cc1 (stereo not given)", "growth inhibition (%)": 49.8}
{"Molecule": "CCOC(=O)c1c(-c2ccccc2)csc1NS(=O)(=O)c1ccc(C)cc1", "growth inhibition (%)": 81.8}
{"Molecule": "CCCCC1=C(c2ccccc2)/C(=N/Nc2ccc([N+](=O)[O-])cc2[N+](=O)[O-])c2ccccc21", "growth inhibition (%)": 12.7}
{"Molecule": "Cc1cc[n+](CCC(N)=O)cc1", "growth inhibition (%)": -10.8}

Need growth inhibition, item COc1ccccc1-n1c(=O)c(N=Nc2ccc(Br)cc2)c(O)n(-c2ccccc2C)c1=S 49.1

Thanks! And O=C(c1ccccc1)C(C(Nc1ccccc1)c1ccccc1)N1CCOCC1 (stereo not given) ? 6.65

Now give it for COC(=O)[C@]1(C)CCCC2(C)C1CC[C@H]1C=C(C)[C@H]3CCC12C3 (stereo not given in full) too. 14

Queued: COC(=O)C1CCCC1 3.75
